Biological target: FGFR3 (UniProt P22607)
Sequence (P22607 whole entry, looked up): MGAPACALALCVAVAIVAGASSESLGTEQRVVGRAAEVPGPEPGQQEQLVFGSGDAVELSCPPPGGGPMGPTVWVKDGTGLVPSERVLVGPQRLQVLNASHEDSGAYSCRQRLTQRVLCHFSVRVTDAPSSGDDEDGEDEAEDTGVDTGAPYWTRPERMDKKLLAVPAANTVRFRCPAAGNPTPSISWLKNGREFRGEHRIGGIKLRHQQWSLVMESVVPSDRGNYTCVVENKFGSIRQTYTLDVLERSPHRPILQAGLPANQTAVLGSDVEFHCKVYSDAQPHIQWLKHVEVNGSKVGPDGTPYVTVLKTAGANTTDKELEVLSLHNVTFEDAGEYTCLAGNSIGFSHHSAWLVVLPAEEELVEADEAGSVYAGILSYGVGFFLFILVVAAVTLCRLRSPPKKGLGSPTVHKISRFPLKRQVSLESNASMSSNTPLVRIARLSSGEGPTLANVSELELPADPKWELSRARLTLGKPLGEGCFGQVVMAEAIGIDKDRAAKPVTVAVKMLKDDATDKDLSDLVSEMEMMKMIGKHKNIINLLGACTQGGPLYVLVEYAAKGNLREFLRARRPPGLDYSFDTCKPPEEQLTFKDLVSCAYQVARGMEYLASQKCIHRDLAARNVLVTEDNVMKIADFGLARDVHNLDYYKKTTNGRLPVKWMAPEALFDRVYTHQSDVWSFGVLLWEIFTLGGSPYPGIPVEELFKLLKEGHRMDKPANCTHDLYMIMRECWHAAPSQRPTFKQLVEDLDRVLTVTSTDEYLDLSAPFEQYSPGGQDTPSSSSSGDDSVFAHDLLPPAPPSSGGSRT
Assay: phosphorylation enrichment, bacterial display (enrichment ratio); higher = better substrate or ligand; peptides without Tyr show the background;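 further: 11-residue human phosphosite peptides and single-mutation variants displayed on the E. coli surface, counted by deep sequencing, each peptide's frequency after selection divided by its frequency in the unselected input library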;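 further: frequency after pTyr selection over input frequency; kinase dosed for 20-30% of maximal phosphorylation in three min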
METRIC_NAME: phosphorylation enrichment
The response must contain the number and no unit.

{"columns": ["SEQ", "VALUE_REPORTED"],
 "data": [
  ["SFGESYDNSKS [MAN1B1_Y60_N59S]", 0.595],
  ["MIRSAYALRGL [CPS1_Y590_G593R]", 0.527],
  ["VEYAKYGSLQG [RET_Y809_R813Q]", 0.539]
]}

So for VVEVTYDDVPI [FLNB_Y1308] , the logged phosphorylation enrichment turned out to be 0.947

So for FNNPAYFVLEG [INPPL1_Y986_YF] , the logged phosphorylation enrichment turned out to be 5.18

So for IKGNMYFENSF [EGFR_Y112_R108K_YF] , the logged phosphorylation enrichment turned out to be 0.677

So for AAALAYGLDKS [HSPA9_Y230] , the logged phosphorylation enrichment turned out to be 0.477

###

Target: MERTK (UniProt Q12866)
Sequence (Q12866 whole entry, looked up): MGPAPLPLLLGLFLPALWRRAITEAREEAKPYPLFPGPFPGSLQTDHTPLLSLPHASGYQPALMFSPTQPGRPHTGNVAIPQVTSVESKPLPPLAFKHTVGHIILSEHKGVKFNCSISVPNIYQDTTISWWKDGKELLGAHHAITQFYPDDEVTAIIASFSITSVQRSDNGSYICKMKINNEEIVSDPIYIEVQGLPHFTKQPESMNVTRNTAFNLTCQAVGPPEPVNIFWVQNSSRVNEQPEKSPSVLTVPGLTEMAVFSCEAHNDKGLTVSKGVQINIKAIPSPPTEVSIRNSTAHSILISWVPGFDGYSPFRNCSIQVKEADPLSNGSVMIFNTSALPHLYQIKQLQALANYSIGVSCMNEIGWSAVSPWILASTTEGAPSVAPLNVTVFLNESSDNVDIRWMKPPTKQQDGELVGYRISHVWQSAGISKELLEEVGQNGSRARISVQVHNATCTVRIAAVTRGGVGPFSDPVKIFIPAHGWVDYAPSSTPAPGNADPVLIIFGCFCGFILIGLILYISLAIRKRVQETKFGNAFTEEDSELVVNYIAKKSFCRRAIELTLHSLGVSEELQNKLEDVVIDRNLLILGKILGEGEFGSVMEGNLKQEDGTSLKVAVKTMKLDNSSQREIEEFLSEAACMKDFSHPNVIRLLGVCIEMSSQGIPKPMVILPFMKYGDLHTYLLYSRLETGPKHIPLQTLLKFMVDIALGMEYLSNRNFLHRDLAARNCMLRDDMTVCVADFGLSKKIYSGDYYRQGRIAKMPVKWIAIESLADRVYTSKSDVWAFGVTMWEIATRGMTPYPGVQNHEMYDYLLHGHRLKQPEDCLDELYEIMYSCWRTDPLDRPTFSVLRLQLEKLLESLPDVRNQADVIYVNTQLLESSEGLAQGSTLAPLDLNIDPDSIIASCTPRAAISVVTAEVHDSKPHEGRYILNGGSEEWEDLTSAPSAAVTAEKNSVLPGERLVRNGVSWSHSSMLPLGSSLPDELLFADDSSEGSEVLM
Experiment: phosphorylation enrichment, bacterial display (enrichment ratio); higher = better substrate or ligand; peptides without Tyr show the background
METRIC_NAME: phosphorylation enrichment

Before answering, review these 8 worked examples.
{"columns": ["SEQ", "VALUE_REPORTED"],
 "data": [
  ["TLSGIYQYSIA [FOXL2_Y81_I84S]", 6.7],
  ["EGNEQYEGFCV [GRIA3_Y451_R450Q_YF]", 0.832],
  ["VDSLRYIFPKL [EIF2B3_Y92_A87V_YF]", 0.531],
  ["IKNSGYISQFL [EIF2AK3_Y585_R588Q_YF]", 0.327],
  ["PESCLYKESWL [IQGAP2_Y630]", 1.2],
  ["VDTLWYKFLKR [EPM2A_Y86_F84L]", 0.374],
  ["KKHIPCREHKS [CSNK1G2_Y206_Y206C]", 0.713],
  ["DTKPAYQNLRQ [BOD1_Y82]", 0.313]
]}

So for SVVVPYEPPED [TP53_Y220_V225D] , the logged phosphorylation enrichment turned out to be 0.441

###

Molecular target: Fes (UniProt P07332)
Sequence (P07332 whole entry, looked up): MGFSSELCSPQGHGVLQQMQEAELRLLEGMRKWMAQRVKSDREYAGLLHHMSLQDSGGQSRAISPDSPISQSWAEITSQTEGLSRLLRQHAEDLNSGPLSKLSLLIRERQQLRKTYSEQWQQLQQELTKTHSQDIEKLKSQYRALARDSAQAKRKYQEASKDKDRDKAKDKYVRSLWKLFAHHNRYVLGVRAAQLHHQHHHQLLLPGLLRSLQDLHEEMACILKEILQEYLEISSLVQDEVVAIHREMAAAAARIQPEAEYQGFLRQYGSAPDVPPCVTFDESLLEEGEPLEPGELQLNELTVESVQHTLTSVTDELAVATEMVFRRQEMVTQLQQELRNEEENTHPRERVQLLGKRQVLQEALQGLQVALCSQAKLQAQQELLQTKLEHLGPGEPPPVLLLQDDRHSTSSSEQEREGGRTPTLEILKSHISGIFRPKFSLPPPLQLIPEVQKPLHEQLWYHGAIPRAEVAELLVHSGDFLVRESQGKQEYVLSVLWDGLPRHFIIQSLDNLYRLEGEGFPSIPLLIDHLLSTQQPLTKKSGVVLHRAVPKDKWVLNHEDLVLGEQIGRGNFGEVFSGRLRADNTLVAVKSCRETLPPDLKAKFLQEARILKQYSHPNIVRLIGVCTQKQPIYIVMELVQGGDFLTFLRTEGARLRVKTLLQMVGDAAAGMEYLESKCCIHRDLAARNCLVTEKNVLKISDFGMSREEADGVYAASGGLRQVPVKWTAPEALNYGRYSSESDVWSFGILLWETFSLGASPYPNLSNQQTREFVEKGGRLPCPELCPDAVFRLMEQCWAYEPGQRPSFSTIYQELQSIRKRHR
Assay: phosphorylation enrichment, bacterial display (enrichment ratio); higher = better substrate or ligand; peptides without Tyr show the background
# maps each entry to its phosphorylation enrichment

Before answering, review these 5 worked examples.
{"columns": ["SEQ", "TARGET_DESC", "METRIC_NAME", "VALUE_REPORTED"],
 "data": [
  ["EFITRYIASLK [PSMA7_Y110_YF]", "Fes (UniProt P07332)", "phosphorylation enrichment", 0.806],
  ["RQQEVYLLYKQ [RARRES1_Y159_D158V]", "Fes (UniProt P07332)", "phosphorylation enrichment", 1.98],
  ["QEVLEYFMKQM [PIK3CA_Y1038_A1035V]", "Fes (UniProt P07332)", "phosphorylation enrichment", 1.94],
  ["KYLENYLNCLL [PLD2_Y169_R172C]", "Fes (UniProt P07332)", "phosphorylation enrichment", 1.47],
  ["NVADHYRVYKP [ATP6V0D2_Y271_G272R]", "Fes (UniProt P07332)", "phosphorylation enrichment", 0.767]
]}

So for CLLHCYFSQIH [MCM3AP_Y873_R878H] , the logged phosphorylation enrichment turned out to be 1.29

So for KRGIDYILWHM [FRMD1_Y225_R228W] , the logged phosphorylation enrichment turned out to be 1.15

So for KVALVYGQMNE [ATP5F1B_Y269] , the logged phosphorylation enrichment turned out to be 1.13

So for YGSSSYGGAGG [RPA2_Y14] , the logged phosphorylation enrichment turned out to be 0.626

So for NTVLGYFIGCI [GARS1_Y408_R412C] , the logged phosphorylation enrichment turned out to be 1.31

So for GPKSTYISSAG [GOLGA5_Y62_A67G] , the logged phosphorylation enrichment turned out to be 0.587

So for EESREYDRLFE [PIK3R1_Y463_K459E_YF] , the logged phosphorylation enrichment turned out to be 1.49

So for CTTIHHNYMCN [TP53_Y234_Y234H] , the logged phosphorylation enrichment turned out to be 0.649

So for ATDLAYYLVCK [ASL_Y375_R379C] , the logged phosphorylation enrichment turned out to be 1.77

So for RREWFYEVIIA [BACE1_Y260_V265A_YF] , the logged phosphorylation enrichment turned out to be 0.733

So for GDFFRSLAEVA [YWHAG_Y133_Y133S_YF] , the logged phosphorylation enrichment turned out to be 0.865

So for CGQDPCIRELG [UROS_Y19_Y19C] , the logged phosphorylation enrichment turned out to be 0.946

So for QAPPIYLDVLG [NTRK1_Y791_V790I] , the logged phosphorylation enrichment turned out to be 0.952

So for DKEKWYPLGNS [PIK3C2G_Y1438] , the logged phosphorylation enrichment turned out to be 0.868

So for NHRNQYQALKP [CLSPN_Y887] , the logged phosphorylation enrichment turned out to be 0.534

So for RQSHNYLGGFA [SYK_Y47_R45H] , the logged phosphorylation enrichment turned out to be 0.65

So for QRCYVYYYSYL [PTEN_Y176_R173C] , the logged phosphorylation enrichment turned out to be 2.08

So for FRSSLYSLMET [MYO5C_Y633_L634S] , the logged phosphorylation enrichment turned out to be 1.16

So for VDSNPYSRLVA [UBA5_Y53_M57V] , the logged phosphorylation enrichment turned out to be 0.64

So for KRFRIYHLATS [BRCA2_Y3009_YF] , the logged phosphorylation enrichment turned out to be 1.57

So for FAELMYTGFWH [ASS1_Y322_V321M] , the logged phosphorylation enrichment turned out to be 1.67

So for ATGLIYIGSHD [AASDH_Y870_T865A] , the logged phosphorylation enrichment turned out to be 1.15

So for PGPQSYPIVTG [PAX5_Y299] , the logged phosphorylation enrichment turned out to be 0.736

Data origin: the supplement of paper PMC10065799
